System: DIV14
Test: qHTS profiling for inhibitors of Plasmodium falciparum proliferation (AID 504749); further: nearly all actives have a fitted effect of over 60% in size
Settings: P. falciparum in erythrocytes, SYBR Green DNA, 72 h; series mostly up to 28.7 µM
Description: NIH National Institute of Allergy and Infectious Diseases [NIAID] NIH Chemical Genomics Center [NCGC] […] Because mature erythrocytes lack DNA, only Plasmodium-derived DNA is detected. NCGC Assay Protocol Summary: The SYBR Green viability assay was adapted from a method described previously (Plouffe et al., 2008). […] The following morning, fluorescence intensity at 485(14) nm excitation and 535(25) nm emission wavelengths was measured on an EnVision (Perkin Elmer) plate reader. […]
Records with an inconclusive call do not appear. Calls of active or inactive are those of the source. The call rests on the fitted dose curve; in most records, active means well fitted inhibition curve with a large enough effect; inconclusive means small, poorly fitted or top-dose-only effect; inactive means flat fitted curve, though single readings scatter.
Write down the outcome that applies. Available outcomes: active, inactive

Assay result, entry CO/N=C(\C(=O)N[C@@H]1C(=O)N2C(C(=O)[O-])=C(C[N+]3(C)CCCC3)CS[C@@H]12)c1csc(N)n1 — outcome?
inactive

Assay result, entry N[C@H](COP(=O)(O)O)C(=O)O — outcome?
inactive

Assay result, entry CC1(C)S[C@@H]2[C@H](NC(=O)Cc3ccccc3)C(=O)N2[C@@H]1C(=O)O — outcome?
inactive

Assay result, entry CN1[C@@H]2CC(OC(=O)[C@@H](CO)c3ccccc3)C[C@@H]1[C@H]1O[C@H]12 (stereo not given in full) — outcome?
inactive

Assay result, entry O=C(O)[C@@H](O)[C@@H](O)[C@H](O)C(=O)CO — outcome?
inactive

Assay result, entry COc1cccc2c1C(=O)c1c(O)c3c(c(O)c1C2=O)C[C@](O)(C(=O)CO)C[C@@H]3O[C@H]1C[C@H](N)[C@@H](O)[C@H](C)O1 — outcome?
inactive

Assay result, entry CC(C)(C)c1ccc(CN2CCN([C@H](c3ccccc3)c3ccc(Cl)cc3)CC2)cc1 — outcome?
active

Assay result, entry C[C@H](CCC(=O)O)[C@H]1CC[C@@H]2[C@H]3[C@@H](C[C@@H](O)[C@]21C)[C@]1(C)CC[C@H](O)C[C@@H]1C[C@@H]3O — outcome?
inactive

Assay result, entry O=C(O)[C@@H](S)[C@H](S)C(=O)O — outcome?
active

Assay result, entry N[C@@H](Cc1ccccc1)C(=O)O — outcome?
inactive

Assay result, entry COc1cc2nc(N(C)CCCNC(=O)[C@@H]3CCCO3)nc(N)c2cc1OC — outcome?
inactive

Assay result, entry Cc1c(C(=O)O)c(O)cc2c1C(=O)c1c(O)c([C@H]3O[C@H](CO)[C@@H](O)[C@H](O)[C@H]3O)c(O)c(O)c1C2=O — outcome?
inactive

Assay result, entry OC[C@H](S)CS — outcome?
active

Assay result, entry CN(C)[C@H]1C(=O)C(C(=O)NCN2CCCC2)=C(O)[C@]2(O)C(=O)C3=C(O)c4c(O)cccc4[C@](C)(O)[C@H]3C[C@H]12 — outcome?
inactive

Assay result, entry CC1(C)[C@@H]2CC[C@]1(C)[C@@H](OC(=O)CSC#N)C2 — outcome?
inactive

* * *

Biological target: Glucocorticoid receptor (Homo sapiens)
Assay: GR-EFC Redistribution (AID 451); further: potency means the concentration at half of the fitted maximal effect
Conditions: CHO-K1 GR-EFC translocation, beta-gal luminescence, 2 h
Calls of active or inactive are those of the source. The call rests on the fitted dose curve.
assay_readout: Potency

What does the record list as Potency for O=C(O)c1ccc(C(=O)c2ccccc2)c(C(=O)O)c1 ?
> 9.22 µM (inactive)

What does the record list as Potency for O=C(O)c1nc2nc(Cl)c(Cl)nc2[nH]1 ?
> 9.22 µM (inactive)

What does the record list as Potency for OCCN(CCO)c1ncnc2nc[nH]c12 ?
> 9.22 µM (inactive)

What does the record list as Potency for CC(C)Cn1cnc2c(SCc3ccc(Cl)cc3Cl)nc(N)nc21 ?
> 9.22 µM (inactive)

What does the record list as Potency for NNC(=O)CNc1cccc(Br)c1 ?
> 9.22 µM (inactive)

What does the record list as Potency for Clc1ccccc1NN(Cc1ccccn1)c1ccccc1Cl ?
> 9.22 µM (inactive)

What does the record list as Potency for O=C(O)C[C@H](Cc1ccccc1)C(=O)O ?
> 9.22 µM (inactive)

What does the record list as Potency for O=C(O)/C(Cc1ccnc2ccccc12)=N\O ?
> 9.22 µM (inactive)

What does the record list as Potency for NS(=O)(=O)c1ccc(NCc2cnc3ccccc3n2)cc1 ?
> 9.22 µM (inactive)

What does the record list as Potency for [N-]=[N+]=Nc1ccc(C(=O)CSC[C@@H](NC(=O)CC[C@@H](N)C(=O)O)C(=O)NCC(=O)O)cc1 ?
> 46 µM (inactive)

What does the record list as Potency for CC1(C)CCC(NC(=O)[C@H](N)CCC(=O)O)CC1 ?
> 46 µM (inactive)

What does the record list as Potency for O=C(O)/C=C\C(=O)N1Cc2cc3ccccc3nc2C1 ?
> 9.22 µM (inactive)

What does the record list as Potency for Cc1c(NC(=O)Nc2c(Cl)cccc2Cl)c(=O)n(-c2ccccc2)n1C ?
> 9.22 µM (inactive)
